Data origin: PubChem BioAssay

# procedureDetails: interference with biotin-avidin bead interaction – biochemical, flow cytometry, bead-based, counter-screen for RGS protein interaction modulators (AID 1783);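 note: median green fluorescence of gated singlet beads compared with DMSO control wells; 0% = DMSO wells and 100% = complete loss of bead fluorescence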
# conditionNotes: streptavidin beads, fluorescein-biotin binding; at 10 µM, stronger effect = higher value
This is one part of the list.
Here, each record is paired with measured inhibition data.
Express it in %; write the number only.

For orientation, consider the following solved cases.
Cc1cc2nc(C)n(CCCNC(=O)Nc3ccccc3)c2cc1C = -0.5
Cc1cc(C)cc(N(CC(=O)Nc2c(C)n(C)n(-c3ccccc3)c2=O)S(C)(=O)=O)c1 = -0.5
Cn1c(=O)c2c(n(Cc3ccccc3)c1=O)NC(=O)C2CC(=O)N1CCc2ccccc2C1 (stereo not drawn) = 0.9
Oc1ccc(N=Nc2nccs2)c(O)c1 = -1.7
COc1cccc(C(=O)NCCSc2ccc(Br)cc2)c1 = -0.2
C/C(=N\NS(=O)(=O)c1ccc(Br)cc1)c1cccs1 = 1.5
Nc1ccc(C(=O)OCC(=O)NC2CCS(=O)(=O)C2)cc1[N+](=O)[O-] (stereo not drawn) = -1.4
C=CCNc1nc(N)c(C(=C(C#N)C#N)c2ccccc2)s1 = 0.8

Input O=C(NCc1ccc(F)cc1)C1CCC(CNc2c(N3CCOCC3)c(=O)c2=O)CC1 (stereo not drawn) . Output inhibition: 0

Input CCC(=O)N1CCC(C(N)=O)(N2CCCCC2)CC1 . Output inhibition: 2

Input CCN(CC)S(=O)(=O)c1cccc(-c2n[nH]c(=S)n2/N=C/c2ccc(C(=O)OC)cc2)c1 . Output inhibition: -1.2

Input CCCOc1ccc(Cc2c(Cl)nc(SC)nc2NC)cc1 . Output inhibition: -0.2

Input CC(C)(C)NC(=O)c1cccc(NC(=O)Cc2ccc(Br)cc2)c1 . Output inhibition: 1

Input O=c1[nH]c2ccccc2s1 . Output inhibition: -0.3

Input CCCCOC(=O)Cn1c(=N)n(CCN(CC)CC)c2ccccc21 . Output inhibition: -1.7

---

Here, each record is paired with measured GFP response vs DMSO data.
# procedureDetails: TOR pathway reporter MEP2-GFP, retest of hits – S. cerevisiae, flow cytometry GFP, cherry picks, confirmation (AID 2272);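 note: ratio of well signal to plate DMSO mean so 100% equals DMSO level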
# conditionNotes: S. cerevisiae MEP2-GFP strain, 3 h, at 10 µM, stronger effect = higher value
Express it in %; write the number only.

For orientation, consider the following solved cases.
O=[N+]([O-])c1ccc(O)c2ncccc12 = 120
CC(=O)OCC(=O)[C@@]1(O)CC[C@H]2[C@@H]3CCC4=CC(=O)CC[C@]4(C)[C@H]3[C@@H](O)C[C@@]21C = 100
CC(C)(C)c1ccc(C(=O)CC(Sc2ccc(Cl)cc2)C(=O)O)cc1 (centres undefined) = 101

Field: next molecule
Input CCCCCCCC(=O)OCC(=O)[C@@]1(O)CC[C@H]2[C@@H]3CCC4=CC(=O)CC[C@]4(C)[C@H]3[C@@H](O)C[C@@]21C . Output GFP response vs DMSO: 103

---

# assayedSystem: ATP-binding cassette sub-family B member 6 (Homo sapiens)
# procedureDetails: blockers of ABCB6-driven porphyrin uptake – K562-ABCB6 cells, flow cytometry, validation set, pilot screen (AID 588550);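 note: 0% = DMSO wells and 100% = benzethonium chloride 70 µM positive control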
# conditionNotes: K562-ABCB6 porphyrin accumulation, 1 h, at 10 µM, stronger effect = higher value
Activity calls are given as the source filed them.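 How the source made its calls: active means inhibition above the screen-wide mean plus 3 SD, about 51%; inactive means the rest.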
measurementType: inhibition

For orientation, consider the following solved cases.
COc1ccc(CN(CCC(c2ccccc2)c2ccc(OC(C)C)cc2)C(=O)CCl)cc1OC (configuration not stated) = 6% (inactive)
CC(=O)N1CCn2c3c(c4cc(C)ccc42)CCCC31 (configuration not stated) = -1% (inactive)
CC1(C)CC(=O)C(C2=NC(C)(C)Cc3ccccc32)=C(O)C1 = 13% (inactive)

Response field inhibition (ATP-binding cassette sub-family B member 6 (Homo sapiens)) for item O=C1CC2(CCCC2)CC(=O)N1CCCCN1CCN(c2ncccn2)CC1 : 9% (inactive)

Response field inhibition (ATP-binding cassette sub-family B member 6 (Homo sapiens)) for item Cc1nc(-c2coc3c(CN(C)C)c(O)ccc3c2=O)cs1 : 11% (inactive)

Response field inhibition (ATP-binding cassette sub-family B member 6 (Homo sapiens)) for item COc1ccccc1/C=C/C(=O)OCCN1CCOCC1 : -9% (inactive)

Response field inhibition (ATP-binding cassette sub-family B member 6 (Homo sapiens)) for item c1ccc(SSc2ccccc2)cc1 : -6% (inactive)

Response field inhibition (ATP-binding cassette sub-family B member 6 (Homo sapiens)) for item COc1c2ccoc2nc2c(OC)cccc12 : 6% (inactive)

Response field inhibition (ATP-binding cassette sub-family B member 6 (Homo sapiens)) for item CCC(=O)c1ccc(OCc2ccc(C(=O)OC)cc2)cc1 : 10% (inactive)

Response field inhibition (ATP-binding cassette sub-family B member 6 (Homo sapiens)) for item COc1ccccc1C(CCN(Cc1ccccc1)C(C)=O)c1ccco1 (configuration not stated) : 15% (inactive)

Response field inhibition (ATP-binding cassette sub-family B member 6 (Homo sapiens)) for item COc1ccc(CCN=CC2=C(O)CC(C)(C)CC2=O)cc1 : 3% (inactive)

Response field inhibition (ATP-binding cassette sub-family B member 6 (Homo sapiens)) for item CCOC(=O)c1oc2cc(O)cc(C)c2c(=O)c1-c1cscn1 : 3% (inactive)

---

# assayedSystem: Beta-2 adrenergic receptor (Homo sapiens)
# procedureDetails: agonist-induced loss of surface beta2AR – cell-based, FAP fluorogen, flow cytometry, validation set, pilot screen (AID 504459);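 note: agonist-driven loss of surface beta2AR via internalization measured by FAP dye flow cytometry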
# conditionNotes: Am2.2-beta2AR cells, at 10 µM, stronger effect = higher value
Here, each record is paired with measured response data.
Express it in %; write the number only.

For orientation, consider the following solved cases.
CCN(CC)C(=O)N1CCN(C)CC1 = -0.51
CC(=O)NC(Cc1c[nH]c2ccccc12)C(=O)N/N=C/c1ccccc1 (stereo unspecified) = -1.6
CC1Cc2ccccc2N1NC(=O)c1ccc(Cl)c(S(N)(=O)=O)c1 (stereo unspecified) = -28.6

Input COCCOC(=O)C1=C(N)OC2=C(C(=O)CCC2)C1c1cccnc1 (stereo unspecified) . Output response: -2.38

Input O=C(O)c1ccccc1Nc1cccc(C(F)(F)F)c1 . Output response: -9.88

Input COc1ccc(CC(=O)Nc2cccc(C(=O)Nc3ccccc3C(=O)O)c2)cc1OC . Output response: -21.7

Input O=C(c1ccc(Cl)cc1)C1CCCN(Cc2ccc(Oc3ncccn3)cc2)C1 (stereo unspecified) . Output response: -3.98

---

Here, each record is paired with measured fluorescence, percent of control (lower = inhibition) data.
# assayedSystem: Cell division control protein 42 homolog (Homo sapiens) (UniProt P60953)
# Sequence (P60953 whole entry, looked up): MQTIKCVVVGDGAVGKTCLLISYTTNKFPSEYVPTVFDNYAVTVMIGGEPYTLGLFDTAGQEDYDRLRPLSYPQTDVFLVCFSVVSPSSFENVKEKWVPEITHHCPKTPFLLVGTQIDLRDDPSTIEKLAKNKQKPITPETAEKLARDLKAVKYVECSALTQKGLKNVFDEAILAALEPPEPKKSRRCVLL
# procedureDetails: inhibition of fluorescent GTP binding to wildtype Cdc42 – biochemical, multiplex bead flow cytometry, Bodipy-FL-GTP, dose response (AID 1334)
# conditionNotes: bead-based flow cytometry, Bodipy-FL-GTP binding to GST-Cdc42; at 100 µM (top of the series) unless noted
Entries with a potency or affinity are not part of this list.
Number first, unit second.

For orientation, consider the following solved cases.
COc1ccc2oc(COc3ccccc3)c(C(=O)O)c2c1 = 59.6%
CCOC(=O)Cn1nnnc1CN(Cc1cccs1)Cc1cc2cc(C)cc(C)c2[nH]c1=O = 81.6%
CCCCCCCCCCCCCCCC(=O)Nc1cccc(C#CC(=O)c2ccc([N+](=O)[O-])cc2)c1 = 66%

Input Cc1ccccc1OCCn1cc(C(=O)O)c2c(C)cccc21 . Output fluorescence, percent of control (lower = inhibition): 53%

Input CCc1ccc(Cn2nnc(C(=O)O)c2C(=O)O)cc1 . Output fluorescence, percent of control (lower = inhibition): 58.5%

Input COc1ccc(C2(CNC(=O)C(c3ccccc3)c3ccccc3)CCOCC2)cc1OC . Output fluorescence, percent of control (lower = inhibition): 34%

Input CCCOC(=O)NC1CCS(=O)(=O)C1 (stereo not drawn) . Output fluorescence, percent of control (lower = inhibition): 99.8%

Input COc1cc(N2CCCC2)c(OC)cc1/C=C(/C#N)c1cccc(Br)c1 . Output fluorescence, percent of control (lower = inhibition): 103%

Input O=C(c1cccnc1SCCc1ccccc1)N1CCOCC1 . Output fluorescence, percent of control (lower = inhibition): 77.3%

Input COc1ccccc1C(=O)Nc1nc(-c2ccc3c(c2)OCCO3)cs1 . Output fluorescence, percent of control (lower = inhibition): 28.6%

Input COc1ccc(-c2cc(C(F)(F)F)n3nc(C(=O)O)cc3n2)cc1OC . Output fluorescence, percent of control (lower = inhibition): 30.7%

Input O=C(CNC(=O)c1ccco1)OCN1C(=O)c2ccccc2C1=O . Output fluorescence, percent of control (lower = inhibition): 52%

---

Here, each record is paired with measured binding (% of control) data.
# Tested on: anti-desmoglein-3 scFv antibody binding to human DSG3
# procedureDetails: blockers of pathogenic pemphigus antibody–desmoglein-3 binding – biochemical, validation compound set, bead-based, flow cytometry, pilot screen (AID 588368);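 note: signal is the median channel fluorescence of bead-bound GFP antibody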
# conditionNotes: Protein G beads, DSG3-Fc, scFv-GFP binding, at 10 µM, stronger effect = lower value
Calls of active or inactive are those of the source.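 The calls were made as follows: active = binding below the plate cutoff, the plate median minus 3 SD, with a reading above zero; inconclusive = below the plate cutoff but reading exactly zero; inactive = the rest.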

Cc1cc(-c2nn(-c3ccccc3F)cc2CN2CCCC(O)C2)c(C)s1 (stereo not drawn) = 103% (inactive)
CC1(C)CC(CC(=O)O)(c2ccc(Cl)cc2)CCO1 (stereo not drawn) = 107% (inactive)
COc1ccc(C2C3CCCCC3(O)CCN2C(=O)c2cccs2)cc1 (stereo not drawn) = 99% (inactive)
NC(N)=N/N=C/c1cccc(Cl)c1Cl = 102% (inactive)
Cc1cc(Cl)cc2c1NC(=O)[C@]21[C@@H]2C(=O)N(Cc3ccccc3)C(=O)[C@@H]2[C@@H]2CCCN21 = 104% (inactive)
CC(C)CC(NC(=O)CNC(=O)C1O[C@@H]2OC(C)(C)O[C@@H]2[C@H]2OC(C)(C)O[C@@H]12)C(=O)O (stereo partly drawn) = 96.9% (inactive)
O=C(CCC(=O)NCCO)NCCO = 100% (inactive)
CN1/C(=C\C=Nc2ccccc2)C(C)(C)c2ccccc21 = 116% (inactive)

Input O=C1CC2(CCCC2)CC(=O)N1CCCCN1CCN(c2ncccn2)CC1 . Output binding (% of control): 101% (inactive)

Input Cc1cccc(Nc2ncccc2C(=O)O)c1C . Output binding (% of control): 98.4% (inactive)

Input COc1cc(-c2nnc(-c3cccs3)o2)cc(OC)c1OC . Output binding (% of control): 101% (inactive)

Input O=C(O)CCCCCNC(=O)Nc1ccc2c(c1)OCCO2 . Output binding (% of control): 108% (inactive)

Input Cc1ccc(C(=O)NCCNC(=O)c2ccccc2)cc1 . Output binding (% of control): 103% (inactive)

Input COc1ccc(NC(=O)CC(c2ccccc2)c2ccco2)cc1 (stereo not drawn) . Output binding (% of control): 100% (inactive)

Input Cc1ccc2c(c1)C1(C(=O)N2)N2CCCC2C(C(=O)c2ccc3ccccc3c2)C12C(=O)Nc1ccccc12 (stereo not drawn) . Output binding (% of control): 97.2% (inactive)

Input CN(CCO)CC(O)Cn1cnc2c1c(=O)n(C)c(=O)n2C (stereo not drawn) (tested in a mixture with another compound) . Output binding (% of control): 103% (inactive)

Input COc1cc(CNCc2ccc(OC)c(OC)c2OC)cc(OC)c1 . Output binding (% of control): 102% (inactive)

Input O=C1[C@@H]2CSCN2C(=O)CN1Cc1ccc(F)cc1 . Output binding (% of control): 83.8% (inactive)

Input CO[C@H]1C=CO[C@@]2(C)Oc3c(C)c(O)c4c(O)c(c(C=NN5CCN(C)CC5)c(O)c4c3C2=O)NC(=O)C(C)=CC=C[C@H](C)[C@H](O)[C@@H](C)[C@@H](O)[C@@H](C)[C@H](OC(C)=O)[C@@H]1C . Output binding (% of control): 99.2% (inactive)

Input CC1(C)C(C=C(Cl)Cl)C1C(=O)N1CCN(Cc2ccccc2)CC1 (stereo not drawn) . Output binding (% of control): 93.5% (inactive)

Input CCC1(c2ccccc2)NC(=S)N(c2ccc(C)c(C)c2)N1 (stereo not drawn) . Output binding (% of control): 105% (inactive)
